tested on: HCT-15 colon; assay: NCI-60 one-dose screen, 48 h (100 = growth as untreated, 0 = no growth, -100 = all killed); conditions: 10 µM unless noted
Compounds without any hit were thinned out: in the full panel of roughly 83,000, 20% have a hit. The source made the active and inactive calls. How the source made its calls: active means growth percent below 10; inactive means the rest.
Assay Endpoint: growth

The cases that follow already have their growth on record.
Compound | Target System | growth
COc1ccc2cc(-c3ccc(C(=O)NN)c(C)n3)ccc2c1 | HCT-15 colon | 99% (inactive)
O=C(Nc1ccccc1)c1sc(-c2cccc(C(F)(F)F)c2)cc1O | HCT-15 colon | 69.5% (inactive)
N=C(N)c1ccc(-c2ccc(-c3ccc(Cl)cc3Cl)o2)cc1 | HCT-15 colon | -74.1% (active)
O=C(O)CC1Sc2ccccc2NC1=O (stereo unspecified) | HCT-15 colon | 109% (inactive)
CCN(CC)CCOC(=O)Nc1ccccc1Cl | HCT-15 colon | 102% (inactive)
CCCCCCCCn1cc(C2=C(c3coc4ccc(OC)cc34)C(=O)NC2=O)c2ccccc21 | HCT-15 colon | 97.4% (inactive)

Hi! Can you tell me growth for each of these compounds?
1. COc1ccc(Cn2cnc3cc(C(=O)Nc4cccc5ccccc45)ccc32)c(OC)c1
2. Cc1ccc(NSc2ccccc2[N+](=O)[O-])cc1
3. Cc1nc(Nc2cccc(NC(=O)Nc3ccc(Cl)cc3)c2)c2ccccc2n1
4. CCN(CC)CCCNC(=O)c1ccc(N)cc1O
5. N#Cc1cccc(-c2nc3ccccn3c2NCCN2CCOCC2)c1

1. 3.1% [30 µM] (active)
2. 27% (inactive)
3. 77% (inactive)
4. 96.1% (inactive)
5. 105% (inactive)

----------
tested on: OVCAR-3 ovarian; test: NCI-60 one-dose screen, 48 h (100 = growth as untreated, 0 = no growth, -100 = all killed); settings: 10 µM unless noted
About 83,000 compounds went through this panel and 20% of them were active in at least one assay; those are over-represented in the sample as a whole.
Answer Criterion not met if growth is under -60%, and Criterion met if it is -60% or more.

// below: answered compounds
Compound | Class
COc1cc(/C=C/C(=O)c2cccc(-n3cc(-c4ccccc4)[nH]c3=O)c2)cc(OC)c1OC | Criterion met
CCCN1CCN(c2ccc3nc(-c4ccc5nc(-c6ccc(OCC)c(OCC)c6)[nH]c5c4)[nH]c3c2)CC1 | Criterion not met
Clc1cnc(Nc2ccc(OCCN3CCCC3)cc2)nc1NCc1ccco1 | Criterion met
Cc1cn(C2CCCCC2)c(=O)[nH]c1=O | Criterion met
CO/C(=C1/NC(=O)C(Cc2ccc(O)c(Br)c2)N(C)C(=O)C(C)NC(=O)CCC/C=C(\C)CCC(C)OC1=O)c1ccccc1 (centres undefined) | Criterion not met
COc1cc(/C=C/C(=O)c2cccc(-n3cc(-c4ccc(Cl)cc4)[nH]c3=O)c2)cc(OC)c1OC | Criterion met
Cc1csc(NC(=O)c2sc3nc(-c4cccs4)ccc3c2N)n1 | Criterion met
CCNCCNc1cc(C2CCCC2)c(C#N)c2nc3ccccc3n12 | Criterion not met

Now look at this entry.
Quick check, growth >= -60%? "Cc1ccc(-n2nnc(C3=NCCc4c3[nH]c3ccc(Cl)cc43)c2C)cc1"
Criterion met

----------
system: NCI-H23 lung; test: NCI-60 one-dose screen, 48 h (100 = growth as untreated, 0 = no growth, -100 = all killed); settings: 10 µM unless noted
Compounds without any hit were thinned out: in the full panel of roughly 83,000, 20% have a hit.
Answer rule not met if growth is under 90%, and rule met if it is 90% or more.

Compound | Class
CCOC(=O)c1ccc(NC(=O)CCCN(CC)CC)cc1 | rule met
Cc1csc(NC(=O)c2sc3nc(-c4cccs4)ccc3c2N)n1 | rule met
C/C(=N\NC(N)=S)c1nc2ccc(Cl)cc2[nH]1 | rule not met
O[C@H]1CO[C@H]2[C@@H]1OC[C@@H]2Oc1ccc(Nc2ccnc(Nc3ccc(O[C@H]4CO[C@H]5[C@@H]4OC[C@@H]5O)c(Cl)c3)n2)cc1Cl | rule not met

Quick check, growth >= 90%? "CC(/C=N/NC(=O)c1cc(-c2ccco2)[nH]n1)=C\c1ccccc1"
rule met

Quick check, growth >= 90%? "CCCCN1CCN(c2ccc3nc(-c4ccc5nc(-c6cc(OC)c(OC)c(OC)c6)[nH]c5c4)[nH]c3c2)CC1"
rule not met

Quick check, growth >= 90%? "CC(=O)Nc1nccs1"
rule met

Quick check, growth >= 90%? CCN(CC)CCCC(C)NCc1ccccc1 (stereo not drawn)
rule met

Quick check, growth >= 90%? "Cc1ccccc1NC(=O)CN(C)C"
rule met

Quick check, growth >= 90%? "CCCCN(Cc1ccc(C(=O)NO)cc1)C(=O)Nc1ccc(OCCCCCCCCCn2cc(CCCCC(=O)N[C@H](C(=O)N3C[C@H](O)C[C@H]3C(=O)NCc3ccc(-c4scnc4C)cc3)C(C)(C)C)nn2)cc1"
rule not met

Quick check, growth >= 90%? "O=C(CC12CC3CC(CC(C3)C1)C2)NCCOCCOCCNC(=O)c1cc2c(o1)C(=O)c1ccccc1C2=O"
rule not met

Quick check, growth >= 90%? "C=C(C)[C@@H]1CC[C@]2(C(=O)NCC(=O)O)CC[C@]3(C)[C@H](CC[C@@H]4[C@@]5(C)Cc6c([nH]c7ccccc67)C(C)(C)[C@@H]5CC[C@]43C)[C@@H]12"
rule not met

Quick check, growth >= 90%? "CCCCS(=O)(=O)Oc1ccc(-c2nc(C)c(C(=O)OCC)s2)cc1C=O"
rule not met

Quick check, growth >= 90%? "COc1ccc(-c2cc(-c3ccc(Nc4nc(Nc5ccccc5)nc(Nc5ccc(Cl)cc5)n4)cc3)nc(N)c2C#N)cc1"
rule not met

Quick check, growth >= 90%? "Cc1cnc(Nc2ccc(OCCN3CCCC3)cc2)nc1NCc1ccco1"
rule not met

Quick check, growth >= 90%? O=C(CC1Sc2ccccc2NC1=O)NNc1ccc(F)cc1 (stereo not drawn)
rule met

Quick check, growth >= 90%? "O[C@H]1CO[C@H]2[C@@H]1OC[C@@H]2Oc1ccc(Nc2nc(Nc3ccc(F)c(Cl)c3)ncc2F)cc1Cl"
rule met

Quick check, growth >= 90%? "CNCCNc1nc2ccccc2c2c(=O)c3cc(F)ccc3oc12"
rule not met

Quick check, growth >= 90%? "COc1cc2oc(-c3cccc(C(=O)Nc4ccc(C#N)cc4)c3)cc(=O)c2c(O)c1OC"
rule not met

Quick check, growth >= 90%? "CCCCN1CCN(c2ccc3nc(-c4ccc5nc(-c6ccc(OCC)c(OCC)c6)[nH]c5c4)[nH]c3c2)CC1"
rule not met

Quick check, growth >= 90%? OC(CBr)c1ccnc2ccccc12 (stereo not drawn)
rule met

----------
tested on: ACHN renal; assay: NCI-60 one-dose screen, 48 h (100 = growth as untreated, 0 = no growth, -100 = all killed); details: 10 µM unless noted
This is part of a sample that, as a whole, favours compounds with a hit. Of some 83,000 tested, about 20% had one in any assay.
Answer n if growth is under 90%, and y if it is 90% or more.

// below: answered compounds
Test Smiles | Class
O[C@H]1CO[C@H]2[C@@H]1OC[C@@H]2Oc1ccc(Nc2nc(Nc3ccc(F)c(Cl)c3)ncc2F)cc1Cl | y
COc1ccc(/C=C2\COc3ccc(O)cc3C2=O)cc1OC | n
CS(=O)(=O)c1ccc(-c2nc3cc(Cl)ccc3n2CC(=O)NO)cc1 | y

Now look at this entry.
Quick check, growth >= 90%? "CCOC(=O)c1cnn2c(-c3ccc(Cl)cc3)nc(NCc3ccccc3)nc12"
n

----------
tested on: SF-295 CNS; test: NCI-60 one-dose screen, 48 h; details: 10 µM unless noted
The panel holds about 83,000 compounds, 20% with a hit somewhere; the sample as a whole holds those more often. Activity calls are given as the source filed them. How the source made its calls: active means growth percent below 10; inactive means the rest.
Valid outcomes are listed here; reply with one: true (active), false (inactive)

// below: answered compounds
Compound | Class
Fc1ccc(Nc2ccc3cc(OCCCN4CCOCC4)ccc3n2)cc1F | false
Clc1ccc2c(NCCCN3CCN(c4nc(N5CCOCC5)nc5ccccc45)CC3)ccnc2c1 | true
CCNCCNc1cc(-c2cccc(C(F)(F)F)c2)c(C#N)c2nc3ccccc3n12 | true

Name the outcome recorded for "Cc1cnc(Nc2ccc(N3CCN(C)CC3)cc2)nc1Nc1ccc(Cl)c(NS(=O)(=O)C(C)(C)C)c1" in the assay.
false

Name the outcome recorded for "COc1ccc(/C=C2\COc3ccc(O)cc3C2=O)cc1OC" in the assay.
false

Name the outcome recorded for O=C1Nc2ccccc2SC1C1SC(=S)N(Cc2ccccc2)C1=O (configuration not stated) in the assay.
false

----------
Record form. Attribute: growth. Fill in for each entry.
tested on: SN12C renal; assay: NCI-60 one-dose screen, 48 h (100 = growth as untreated, 0 = no growth, -100 = all killed); conditions: 10 µM unless noted
This is part of a sample that, as a whole, favours compounds with a hit. Of some 83,000 tested, about 20% had one in any assay.
Answers are plain numbers, in %.

Hi! Can you tell me growth for each of these compounds?
1. C=C1C(=O)O[C@H]2[C@H]1CC/C(COC(=O)/C=C\C(=O)NCc1ccc(Cn3c(=O)sn(-c4ccc(C#N)cc4)c3=O)cc1)=C\CC[C@@]1(C)O[C@@H]21
2. CN(C)c1ccc(-c2cc(-c3ccc(Nc4nc(Nc5ccccc5)nc(Nc5ccc(Cl)cc5)n4)cc3)nc(N)n2)cc1
3. CNCCNc1nc2ccccc2c2c(=O)c3cc(F)ccc3oc12
4. O=C(/C=C/C12c3ccccc3C(c3ccccc31)C1C(=O)NC(=O)C12)c1ccc(Cl)cc1 (centres undefined)

[-93.8, 50, 46.9, -14.4]
